biological target: BuChE (Rattus norvegicus, UniProt Q9JKC1); construct: from tissue; host or cells: rat serum; experiment: In-vitro anticholinesterase effect (Table 6), BuChE; assay type: biochemical; conditions: read-out: inhibition activity BuChE at 10(μM)
Sequence (Q9JKC1 24-597): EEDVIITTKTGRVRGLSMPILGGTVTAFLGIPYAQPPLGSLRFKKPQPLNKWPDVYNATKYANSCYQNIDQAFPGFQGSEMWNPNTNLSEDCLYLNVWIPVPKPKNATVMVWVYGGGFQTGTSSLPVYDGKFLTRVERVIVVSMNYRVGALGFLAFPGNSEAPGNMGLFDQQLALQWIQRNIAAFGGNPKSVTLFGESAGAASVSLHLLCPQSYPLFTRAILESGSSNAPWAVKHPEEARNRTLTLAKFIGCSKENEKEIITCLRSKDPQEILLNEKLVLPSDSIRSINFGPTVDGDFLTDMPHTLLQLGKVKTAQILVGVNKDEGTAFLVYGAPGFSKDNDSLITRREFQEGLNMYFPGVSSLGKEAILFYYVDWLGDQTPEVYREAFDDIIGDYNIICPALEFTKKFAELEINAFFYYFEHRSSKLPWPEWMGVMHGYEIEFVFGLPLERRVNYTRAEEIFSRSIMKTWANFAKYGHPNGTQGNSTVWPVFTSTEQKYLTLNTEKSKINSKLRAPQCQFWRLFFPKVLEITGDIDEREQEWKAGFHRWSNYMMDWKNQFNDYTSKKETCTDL
READOUT: inhibition at 10 µM (%)
Give bare numbers, in %.

Some molecules with known inhibition at 10 µM results, for comparison:
{"MOLECULE": "CC=C1C2C=C(C)CC1(N=Cc1ccc(O)c(O)c1O)c1ccc(=O)[nH]c1C2 (centres unmarked)", "inhibition at 10 µM, %": 0}
{"MOLECULE": "CC=C1C2C=C(C)CC1(N=Cc1ccc(OC)c(OC)c1O)c1ccc(=O)[nH]c1C2 (centres unmarked)", "inhibition at 10 µM, %": 0}
{"MOLECULE": "CC=C1C2C=C(C)CC1(N=Cc1cccnc1)c1ccc(=O)[nH]c1C2 (centres unmarked)", "inhibition at 10 µM, %": 1.8}

Would you be so kind as to report inhibition at 10 µM for each listed record?
1. CC=C1C2C=C(C)CC1(N=Cc1cccc(O)c1O)c1ccc(=O)[nH]c1C2 (centres unmarked)
2. CC=C1C2C=C(C)CC1(N=CC=Cc1ccccc1)c1ccc(=O)[nH]c1C2 (centres unmarked)
3. CC=C1C2C=C(C)CC1(N=Cc1ccccc1O)c1ccc(=O)[nH]c1C2 (centres unmarked)
4. CC=C1C2C=C(C)CC1(N=Cc1cc(OC)c(OC)c(OC)c1)c1ccc(=O)[nH]c1C2 (centres unmarked)

1. 0
2. 3.3
3. 0
4. 0

The recorded inhibition at 10 µM for entry CC=C1C2C=C(C)CC1(N=Cc1ccc(O)cc1O)c1ccc(=O)[nH]c1C2 (centres unmarked) equals 0
